# assayed-target: KRAS G13D (Homo sapiens (Human), UniProt P01116+P62937, G13D)
# Sequence (P01116 other isoform, or with tags, fused parts or gaps G13D): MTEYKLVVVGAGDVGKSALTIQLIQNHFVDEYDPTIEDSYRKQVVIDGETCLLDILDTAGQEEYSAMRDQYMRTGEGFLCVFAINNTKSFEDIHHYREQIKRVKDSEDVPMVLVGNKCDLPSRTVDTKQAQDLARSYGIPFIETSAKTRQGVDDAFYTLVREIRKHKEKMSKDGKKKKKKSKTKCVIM
# Sequence (P62937 whole entry): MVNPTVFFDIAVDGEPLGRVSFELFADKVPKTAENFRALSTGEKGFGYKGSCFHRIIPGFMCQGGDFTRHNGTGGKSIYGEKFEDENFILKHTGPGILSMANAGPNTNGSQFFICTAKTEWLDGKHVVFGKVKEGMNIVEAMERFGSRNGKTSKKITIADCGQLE
# protocol: Ras-Raf disruption/FRET/MOA assay (BRAF RBD, Cyclophilin A)
# Type: biochemical
# condition: read-out: KRAS G13D FRET data IC50
result-type: IC50

# molecule, assayed-target, reading
data = [
    ("CCn1c(-c2cccnc2[C@H](C)OC)c2c3cc(ccc31)-c1cc(O)cc(c1)C[C@H](NC(=O)[C@H](C(C)C)N(C)C(=O)[C@H]1CCN(C(=O)[C@]3(C)CCCN3)C1)C(=O)N1CCC[C@H](N1)C(=O)OCC(C)(C)C2 [Compound A380]", "KRAS G13D (Homo sapiens (Human), UniProt P01116+P62937, G13D)", "10 to 100 nM"),
    ("CCn1c(-c2cccnc2[C@H](C)OC)c2c3cc(ccc31)-c1cc(O)cc(c1)C[C@H](NC(=O)[C@H](C(C)C)N(C)C(=O)[C@H]1CC1(C)C)C(=O)N1CCC[C@H](N1)C(=O)OCC(C)(C)C2 [Compound A158]", "KRAS G13D (Homo sapiens (Human), UniProt P01116+P62937, G13D)", "100 to 1000 nM"),
    ("CCn1c(-c2cnccc2COC)c2c3cc(ccc31)-c1cc(O)cc(c1)C[C@H](NC(=O)[C@H](C(C)C)N(C)C(=O)N1CCOCC1)C(=O)N1CCC[C@H](N1)C(=O)OCC(C)(C)C2 [Compound A257]", "KRAS G13D (Homo sapiens (Human), UniProt P01116+P62937, G13D)", "100 to 1000 nM"),
    ("CO[C@@H](C)c1ncccc1-c1c2c3cc(ccc3n1CC(F)(F)F)-c1csc(n1)C[C@H](NC(=O)[C@H](C(C)C)N(C)C(=O)N1CC(N(C)C)C1)C(=O)N1CCC[C@H](N1)C(=O)OCC(C)(C)C2 [Compound A303]", "KRAS G13D (Homo sapiens (Human), UniProt P01116+P62937, G13D)", "100 to 1000 nM"),
]

These data points were gathered from patent US20250195521A1.
